Cited source for all entries: the supplement of paper PMC12494721

Test system: Ruminococcus gnavus DSM 108212
Assay: fold change of 2-Phenylethylamine concentration vs plate DMSO controls (fold change (ratio)); higher = more amine produced, active = hit call of the paper (significant change in both replicates, either direction)
Settings: incubation time: 27 h, anaerobic, 37 °C
Counter-ions that a name gives are not always drawn.
Tick Satisfied if fold change of 2-Phenylethylamine concentration is 1 or greater. Tick Not satisfied if fold change of 2-Phenylethylamine concentration is less than 1.

Test whether the compound CO[C@@]1(NC(=O)C2SC(=C(C(N)=O)C(=O)O)S2)C(=O)N2C(C(=O)O)=C(CSc3nnnn3C)CS[C@@H]21 (stereo not given in full) [Cefotetan] (20 µM) records fold change of 2-Phenylethylamine concentration of 1 or higher. Satisfied

// inclusive: fold change of 2-Phenylethylamine concentration at least 1? input: CCS(=O)(=O)CCn1c([N+](=O)[O-])cnc1C [Tinidazole] (20 µM) Not satisfied

Exam item: decide whether the reported fold change of 2-Phenylethylamine concentration for CN1CCN(c2c(F)cc3c(=O)c(C(=O)O)cn4c3c2OCN4C)CC1 [Marbofloxacin] (20 µM) is at least 1. Satisfied

Identify whether the reported fold change of 2-Phenylethylamine concentration of the following compound is 1 or greater: C[C@@H](O[C@H]1OCCN(Cc2n[nH]c(=O)[nH]2)[C@H]1c1ccc(F)cc1)c1cc(C(F)(F)F)cc(C(F)(F)F)c1 [Aprepitant] (20 µM) Not satisfied

Does fold change of 2-Phenylethylamine concentration meet or surpass 1 for NCCc1ccc(O)c(O)c1 [Dopamine hydrochloride] (20 µM) ? Satisfied

Hi, just wondering whether CC(C)CC(=O)N[C@H](C(=O)N[C@H](C(=O)N[C@@H](CC(C)C)[C@@H](O)CC(=O)N[C@@H](C)C(=O)N[C@@H](CC(C)C)[C@@H](O)CC(=O)O)C(C)C)C(C)C [Pepstatin A] (20 µM) shows fold change of 2-Phenylethylamine concentration of 1 or higher. Satisfied

API: above_or_equal(metric=fold change of 2-Phenylethylamine concentration, cutoff=1) for item CCCCC(CC)CN1C(=O)[C@@H]2[C@H](C1=O)[C@@H]1C=C[C@H]2C1 (mixture of isomers) (20 µM) Satisfied

Is reported fold change of 2-Phenylethylamine concentration greater than or equal to 1 here: CCCCC(C)(O)C/C=C/[C@H]1[C@H](O)CC(=O)[C@@H]1CCCCCCC(=O)OC (mixture of isomers) [Misoprostol] (20 µM) Not satisfied

Does OCCOCCN1CCN(C(c2ccccc2)c2ccc(Cl)cc2)CC1 (stereo not given) [Hydroxyzine dihydrochloride] (20 µM) have a reported fold change of 2-Phenylethylamine concentration of at least 1? Satisfied

----------
System: Escherichia coli IAI1
Experiment: fold change of Cadaverine concentration vs plate DMSO controls (fold change (ratio)); higher = more amine produced, active = hit call of the paper (significant change in both replicates, either direction)
Settings: incubation time: 27 h, anaerobic, 37 °C
Where a name gives a salt, the structure may show the parent alone.
Label Yes when fold change of Cadaverine concentration >= 1; otherwise No.

I'd appreciate it if you could say whether CCCCCCNC(=O)n1cc(F)c(=O)[nH]c1=O [Carmofur] (20 µM) has fold change of Cadaverine concentration at least equal to 1. No

Please check the record COc1ccc(Cl)cc1C(=O)NCCc1ccc(S(=O)(=O)NC(=O)NC2CCCCC2)cc1 [Glibenclamide] (20 µM) and state if its fold change of Cadaverine concentration is at or above 1. No

Could you verify whether the entry Nc1c2c(nc3ccccc13)CCCC2 [Tacrine hydrochloride] (20 µM) shows fold change of Cadaverine concentration of no less than 1? Yes

Is fold change of Cadaverine concentration at least 1? Consider OC[C@H]1OC(O)[C@H](O)[C@H](O)[C@@H]1O (stereo partly drawn) [D-allose] (50 µM) Yes

Would you say CC(=O)Oc1ccccc1C(=O)O [Acetylsalicylic acid] (20 µM) shows fold change of Cadaverine concentration at minimum 1? No

Identify whether the reported fold change of Cadaverine concentration of the following molecule is 1 or greater: CCOc1nc2cccc(C(=O)O)c2n1Cc1ccc(-c2ccccc2-c2nnn[nH]2)cc1 [Candesartan] (20 µM) Yes

Hi team, for CCC(NC(C)C)C(O)c1ccc(O)c2[nH]c(=O)ccc12 (stereo not given) [Procaterol hydrochloride] (20 µM) , is the recorded fold change of Cadaverine concentration at or above 1? No
